Each recorded value in this set is attributed to ChEMBL document CHEMBL1201862.

Test system: SF-268
assay.name: NCI tumour cell line growth inhibition, 48 h
Activity calls are given as the source filed them. Rule as the data show it: active = GI50 up to about 1.1 µM and inactive = higher.
Classes used: active, inactive

compound	category.label
COc1cc(S(=O)(=O)Nc2ccc(-c3csc(N4C(=O)CSC4c4ccccc4)n3)cc2)ccc1Cl (stereo not drawn)	inactive
[N-]=[N+]=Nc1ccc2c(c1)Sc1ccccc1N2CCCCN1CCN(Cc2ccc(C(=O)c3ccccc3)cc2)CC1	inactive
CC1(C)CC(/C=C2/OC(=O)c3ccccc32)=C(C(N)=O)C(=O)O1	inactive
CC(C)C[C@H](NC(=O)[C@H](Cc1ccccc1)NC(=O)CCc1ccccc1)B(O)O	active
Cc1[nH]c2ccccc2c1-c1cc(-c2cc(-c3c(C)[nH]c4ccccc34)on2)no1	inactive
COc1ccc2c(c1)CC[C@@H]1[C@@H]2CC[C@]2(C)C(=O)/C(=C/c3cc(OC)c(OC)c(OC)c3)C[C@@H]12	active
Nc1c(-c2nc3ccccc3[nH]2)sc(=S)n1-c1ccc(Cl)cc1	inactive
COc1ccc2nc3ccc(OC)cc3c(SCc3ccccc3)c2c1	inactive

====

GI50 by entry:
Tested on: T47D
assay.name: NCI tumour cell line growth inhibition, 48 h
Calls of active or inactive are those of the source. No stated cut-off is given here; in the data, active = GI50 up to about 1.1 µM and inactive = higher.

compound	GI50
c1ccc2c(c1)ccc1ncccc12	> 100 µM (inactive)
Cc1ccc(SC[C@@]2(C(F)F)NC(=O)NC2=O)cc1	> 100 µM (inactive)
[N-]=[N+]=Nc1ccc2c(c1)Sc1ccccc1N2CCCCN1CCN(Cc2ccc(C(=O)c3ccccc3)cc2)CC1	3.39 µM (inactive)
O=C1Nc2ccccc2C1Cc1ccc([N+](=O)[O-])cc1 (stereo not drawn)	> 100 µM (inactive)
CCOc1cc(/C=N\N(C)C)cc(/C=N\N(C)C)c1O	11.7 µM (inactive)
O=C1/C(=C\c2ccc(Cl)cc2)N=C(c2ccccc2)N1n1c(=O)cn[nH]c1=S	13.5 µM (inactive)
CN(C)/C=N\c1cccc2cnccc12	> 100 µM (inactive)
COc1cc([C@@H]2c3cc4c(cc3[C@@H](c3c(O)cc(O)c5c3O[C@H](c3ccc(O)c(O)c3)[C@H](OC(=O)c3cc(O)c(O)c(O)c3)C5)[C@H]3COC(=O)[C@H]23)OCO4)cc(OC)c1OC	> 100 µM (inactive)
SC[C@@H]1COC[C@H](CS)S1	> 100 µM (inactive)
COC(=O)c1c(O)ccc2c1c1c(n2C)C(=O)c2ccccc2C1=O	3.42 µM (inactive)
Cc1ccc(S(=O)(=O)NC(=O)NCc2ccc(S(N)(=O)=O)cc2)cc1	> 100 µM (inactive)
CC1=C/C(=N\O)C(C(O)(C(F)(F)F)C(F)(F)F)C(C)(C)C1 (stereo not drawn)	> 10 µM (inactive)
NC1=Nc2cc(Cl)ccc2Sc2nc3ccccc3n21	> 33.8 µM (inactive)

====

Entries and their measured GI50 follow.
Test system: IGROV-1
assay.name: NCI tumour cell line growth inhibition, 48 h
The source made the active and inactive calls. Rule as the data show it: active = GI50 up to about 1.1 µM and inactive = higher.

compound	GI50
COc1c(O)cc2c(c1O)C(=O)C1=C(CCCC1)C2=O	12.6 µM (inactive)
Cc1cc(C)c2c(O)cc(-c3ccc(F)cc3)nc2n1	32.4 µM (inactive)
C[C@]12C/C(=C/O)C(=O)C(O)=C1CC[C@@H]1C2CC[C@@]2(C)C1CC[C@@H]2O (stereo not given in full)	21.7 µM (inactive)
CC(C)NC(=O)OCc1c(COC(=O)NC(C)C)c(-c2cc[n+](COC(=O)C3CC3)cc2)n2c1CCC2	> 100 µM (inactive)
CCOC(=O)c1cc(C(O)P2(=O)N(CC(C)(C)C)[C@@H]3CCCC[C@H]3N2CC(C)(C)C)cn1C(=O)OC(C)(C)C (stereo not given in full)	4.8 µM (inactive)
c1ccc2c(c1)ccc1ncccc12	> 100 µM (inactive)
C[C@]12CCC(=O)C(OC(=O)c3ccc([N+](=O)[O-])cc3)=C1CCC2=O	> 100 µM (inactive)
Nc1cc(Cl)ccc1SSc1ccc(Cl)cc1N	10.1 µM (inactive)
C/C(=N/NC(=S)N1CCN(C(=S)N/N=C(/C)c2ccccn2)CC1)c1ccccn1	17.7 µM (inactive)
Clc1cc2ccccc2c2ccccc12	64 µM (inactive)

====

System: LXFL 529
assay.name: NCI tumour cell line growth inhibition, 48 h
Activity calls are given as the source filed them. Cut-off read from the data, not from the text of the source: active = GI50 up to about 1.1 µM and inactive = higher.
Outcome codes: Y = active, N = inactive

compound	category.label
COc1ccc2nc3cc(Cl)ccc3c(NC(C)CCCN(CCCl)CCCl)c2c1 (centres undefined)	Y
c1ccc2cc3[s+]snc3cc2c1	N
CN(C)CCNC(=O)c1cccc2nc3cc(Cl)ccc3nc12	N
COc1ccc(N2C(=O)[C@@H](N=[N+]=[N-])[C@@H]2[C@H]2COC(C)(C)O2)cc1	N
COc1ccc(C(=O)NCCN(C)C)c2nc3ccccc3nc12	N
COc1cc(/C=C(\NC(=O)c2ccccc2)c2nc3cc([N+](=O)[O-])ccc3[nH]2)cc(OC)c1OC	N
CCCCOCc1cc(CN2CCN(C)CC2)c(O)c2ncccc12	N
COc1ccc(OC)c(CC(C)N)c1 (centres undefined)	N
C[S+]=c1sc2ccccc2s1	N

====

Test system: CAKI-1
assay.name: NCI tumour cell line growth inhibition, 48 h
Active and inactive are the calls of the source. Cut-off read from the data, not from the text of the source: active = GI50 up to about 1.1 µM and inactive = higher.
// GI50 lookup, one value per entry

compound	assayed.system	GI50
Nc1cc(S(=O)(=O)O)cc2ccc(S(=O)(=O)O)cc12	CAKI-1	> 100 µM (inactive)
O=C(O)CC[P+](c1ccccc1)(c1ccccc1)c1ccccc1	CAKI-1	> 100 µM (inactive)
O=C(NC(OCc1ccccc1)(C(F)(F)F)C(F)(F)F)OCc1ccccc1	CAKI-1	14.4 µM (inactive)
CCOC(=O)/C=C/C1(CCOC(C)=O)CCCCC1	CAKI-1	> 10 µM (inactive)
Nc1cc(Cl)ccc1SSc1ccc(Cl)cc1N	CAKI-1	19.6 µM (inactive)
c1ccc2cc3[s+]snc3cc2c1	CAKI-1	> 100 µM (inactive)
O=[N+]([O-])c1nccn1CC(O)CN1CCCCC1 (stereo not given) [PIMONIDAZOLE]	CAKI-1	> 100 µM (inactive)
CCOc1cc(/C=N\N(C)C)cc(/C=N\N(C)C)c1O	CAKI-1	18.3 µM (inactive)
Cc1sc2nc3n(c(=O)c2c1C)N=CN(c1ccc(F)cc1)C3	CAKI-1	> 100 µM (inactive)
NC(=O)C1CCCN1C(=O)C(Cc1c[nH]cn1)NC(=O)C1CCCC1 (stereo not given)	CAKI-1	> 100 µM (inactive)
CCCCCOC(=O)c1cc2cc(CCl)ccc2oc1=O	CAKI-1	1.75 µM (inactive)
O=C1OC(c2ccccc2)=N/C1=C\c1ccc([N+](=O)[O-])cc1	CAKI-1	30.7 µM (inactive)
CCNC(=O)CCN(C(=O)O)S(=O)(=O)c1ccc(NC(=O)c2ccccc2)cc1	CAKI-1	> 100 µM (inactive)
Cc1cc2c(cc1Cl)SC(NNC(=O)c1ccco1)=NS2(=O)=O	CAKI-1	> 10 µM (inactive)
O=C(C(=O)n1ccc2ccccc21)c1c[nH]c2ccccc12	CAKI-1	> 10 µM (inactive)
COc1ccc(-c2cc3c(nn2)-c2ccccc2C3=O)cc1	CAKI-1	> 10 µM (inactive)
C[C@@H]1OC(=O)/C(=C\N(C)C)[C@H]2CC(=O)N(CCc3cn(S(=O)(=O)C(F)(F)F)c4ccccc34)C[C@H]12	CAKI-1	> 100 µM (inactive)
O=C(Nc1nn(C(=O)c2cccnc2)c(=O)s1)c1ccc(Cl)cc1	CAKI-1	40.6 µM (inactive)
O=C1C=C(O)C(=O)c2c(O)ccc(O)c21	CAKI-1	> 100 µM (inactive)
CCOC(=O)/C(C(=O)NC(C)C)=C(/N)N1CCOCC1	CAKI-1	> 100 µM (inactive)

====

Test system: SN12C
assay.name: NCI tumour cell line growth inhibition, 48 h
Active and inactive are the calls of the source. Rule as the data show it: active = GI50 up to about 1.1 µM and inactive = higher.
parameter.measured: GI50

compound	parameter.measured	result
CCOC(NC(=O)CC)(C(F)(F)F)C(F)(F)F	GI50	> 100 µM (inactive)
COCCN(C(C)=O)C1CCC2(SCCS2)c2[nH]c3ccccc3c21 (stereo unspecified)	GI50	> 100 µM (inactive)
O=C1/C(=C/c2ccccc2)NC(=S)N1CN1CCCCC1	GI50	> 100 µM (inactive)
COC(=O)C1CC2CC(=NNC(N)=O)CC2C1 (stereo unspecified)	GI50	> 100 µM (inactive)
CC(=O)O[C@H]1CC[C@@]2(C)C(=CC[C@H]3C4=CC=C(C(C)=O)[C@@]4(C)CCC32)C1 (stereo partly specified)	GI50	34.7 µM (inactive)
CC(=O)Nc1ccc2[nH]c(C(=O)N3CC(CCl)c4c3cc([N+](=O)[O-])c3ccccc43)cc2c1 (stereo unspecified)	GI50	7.8 µM (inactive)
O=C(Nc1ccccc1C(=O)O)C(=O)C(C(=O)c1ccccc1-c1ccccc1)C1OC(=O)c2ccccc21 (stereo unspecified)	GI50	17.1 µM (inactive)
COC(=O)C1=C(O)c2cc(OC)c(OC)c(OC)c2[C@H](c2cc(OC)c(OC)c(OC)c2)C1C(=O)OC (stereo partly specified)	GI50	50.8 µM (inactive)
CN1CCOC(c2ccc(Cl)cc2)O1 (stereo unspecified)	GI50	> 100 µM (inactive)
N#CC(/N=N/c1ccccc1)c1nc2ccccc2o1 (stereo unspecified)	GI50	83.4 µM (inactive)
CCCCCCCCCCCCNC(=O)CCC(NC(=O)c1ccc(N(C)Cc2cnc3nc(N)nc(N)c3n2)cc1)C(=O)NCCCCCCCCCCCC (stereo unspecified)	GI50	91.8 µM (inactive)
O=c1c(C(c2ccc(Cl)cc2)c2c(O)c3ccccc3n(-c3ccccc3)c2=O)c(O)c2ccccc2n1-c1ccccc1	GI50	19.1 µM (inactive)
O=C(O)CCC(=O)c1ccc(Cl)cc1	GI50	> 100 µM (inactive)
Cc1cn([C@H]2CN(O)C[C@@H](CO)O2)c(=O)[nH]c1=O	GI50	> 100 µM (inactive)
CCOC(=O)/C(C(=O)NC(C)C)=C(/N)N1CCOCC1	GI50	> 100 µM (inactive)
COc1ccc(C(=O)C(C(=O)CC(=O)Nc2cccc(C(F)(F)F)c2)c2ccc(OC)cc2)cc1 (stereo unspecified)	GI50	> 100 µM (inactive)
